System: 22Rv1 cells
Experiment notes: Cell viability assay, 22Rv1
Format: cell-based
Particulars: Homo sapiens, 144 h; 22RV1 cells, 6 days, CellTiterGlo; read-out: 22RV1 (GI50)
Each entry below carries its recorded GI50.

Worked examples, 5 molecules total:
Quick check: GI50 of CC[C@@]1(O)C(=O)OCc2c1cc1n(c2=O)Cc2cc3c(CN4CCC(N(C)C(=O)CO[C@H]5CC[C@H]6[C@@H]7CC[C@H]8CC(=O)CC[C@]8(C)[C@H]7CC[C@]56C)CC4)c(O)ccc3nc2-1 [Compound 18] ? 10 to 500 nM

May I ask what GI50 has been recorded for CC[C@@]1(O)C(=O)OCc2c1cc1n(c2=O)Cc2cc3c(CN(C)C)c(OCCCCCOc4ccc(C(=O)N[C@H]5CC[C@H](Oc6ccc(C#N)c(Cl)c6)CC5)cc4)ccc3nc2-1 [Compound 7] ? 10 to 500 nM

// GI50 lookup, key: CC[C@@]1(O)C(=O)OCc2c1cc1n(c2=O)Cc2cc3c(CN4CCN(CC5CCN(c6ccc(C(=O)N[C@H]7CC[C@H](Oc8ccc(C#N)c(Cl)c8)CC7)nn6)CC5)CC4)c(O)ccc3nc2-1 [Compound 11] 10 to 500 nM

Looking for the measured GI50 of CC[C@@]1(O)C(=O)OCc2c1cc1n(c2=O)Cc2cc3c(CN4CCN(C(=O)CCCCCOc5ccc(C(=O)N[C@H]6CC[C@H](Oc7ccc(C#N)c(Cl)c7)CC6)cc5)CC4)c(O)ccc3nc2-1 [Compound 12] , can you help? 501 to 1000 nM

May I ask what GI50 has been recorded for CC[C@@]1(O)C(=O)OCc2c1cc1n(c2=O)Cc2cc3c(CN4CCN(C(=O)C5CCN(c6ccc(C(=O)N[C@H]7CC[C@H](Oc8ccc(C#N)c(Cl)c8)CC7)nn6)CC5)CC4)c(O)ccc3nc2-1 [Compound 14] ? 10 to 500 nM

The record that follows has no GI50 shown yet.
What does the record list as GI50 for CC[C@@]1(O)C(=O)OCc2c1cc1n(c2=O)Cc2cc3c(CN(C)C(=O)CO[C@H]4CC[C@H]5[C@@H]6CC[C@H]7CC(=O)CC[C@]7(C)[C@H]6CC[C@]45C)c(O)ccc3nc2-1 [Compound 25] ? 10 to 500 nM

###

Reported IC50 values are given for each entry in this list.
Assay target: full-length androgen receptor (Homo sapiens (Human))
Sequence (P10275 whole entry): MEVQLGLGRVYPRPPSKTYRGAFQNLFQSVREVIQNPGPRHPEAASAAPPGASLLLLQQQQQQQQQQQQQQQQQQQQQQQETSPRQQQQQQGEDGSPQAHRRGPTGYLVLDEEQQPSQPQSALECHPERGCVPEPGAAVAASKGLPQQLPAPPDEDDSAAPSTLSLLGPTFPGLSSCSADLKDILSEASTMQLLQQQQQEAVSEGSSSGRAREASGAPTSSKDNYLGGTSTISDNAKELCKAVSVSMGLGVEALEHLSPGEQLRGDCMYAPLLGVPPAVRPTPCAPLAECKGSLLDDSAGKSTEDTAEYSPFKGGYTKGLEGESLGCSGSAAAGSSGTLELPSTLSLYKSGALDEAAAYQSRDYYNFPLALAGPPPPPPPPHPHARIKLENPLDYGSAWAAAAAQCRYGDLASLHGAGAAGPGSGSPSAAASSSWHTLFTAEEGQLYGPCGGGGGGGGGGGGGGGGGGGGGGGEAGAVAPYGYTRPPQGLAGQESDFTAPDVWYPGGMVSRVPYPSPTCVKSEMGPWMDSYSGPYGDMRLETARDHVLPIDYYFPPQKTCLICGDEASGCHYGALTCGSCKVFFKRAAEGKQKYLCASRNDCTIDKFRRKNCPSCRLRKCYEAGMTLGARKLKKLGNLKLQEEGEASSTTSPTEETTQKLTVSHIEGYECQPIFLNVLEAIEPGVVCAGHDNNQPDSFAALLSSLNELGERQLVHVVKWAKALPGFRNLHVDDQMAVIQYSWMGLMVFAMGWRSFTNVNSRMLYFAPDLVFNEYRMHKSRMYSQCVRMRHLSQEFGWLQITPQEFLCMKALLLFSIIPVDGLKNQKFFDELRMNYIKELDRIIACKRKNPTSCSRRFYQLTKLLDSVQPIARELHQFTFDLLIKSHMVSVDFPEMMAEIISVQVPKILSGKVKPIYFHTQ
Experiment notes: AR antagonism assay
Assay type: cell-based
Particulars: HEK293 cells stably expressing full-length androgen receptor, testosterone 1 nM, 20 h; read-out: AR antagonism

IC50 lookup needed for CC[C@@]1(O)C(=O)OCc2c1cc1n(c2=O)Cc2cc3c(CN(C)C)c(OC(=O)N(C)C4CCN(C(=O)CO[C@H]5CC[C@H]6[C@@H]7CC[C@H]8CC(=O)CC[C@]8(C)[C@H]7CC[C@]56C)CC4)ccc3nc2-1 , thanks. > 1000 nM

// lookup IC50 for CCc1c2c(nc3ccc(OC(=O)N4CCN(C(=O)CCCCCN(C)c5ccc([C@H]6C[C@@]7(C)[C@@H](CC[C@]7(OC(C)=O)C(C)=O)[C@@H]7CCC8=CC(=O)CCC8=C76)cc5)CC4)cc13)-c1cc3c(c(=O)n1C2)COC(=O)[C@]3(O)CC 10 to 500 nM

Name the recorded IC50 for CC[C@@]1(O)C(=O)OCc2c1cc1n(c2=O)Cc2cc3c(CN(C)C)c(OC(=O)N4CCN(CCCCCCO[C@@H]5CC[C@@H]6[C@H]7CC[C@@H]8CC(=O)CC[C@@]8(C)[C@@H]7CC[C@]65C)CC4)ccc3nc2-1 . > 1000 nM

I would be grateful if you could share the reported IC50 for CC[C@@]1(O)C(=O)OCc2c1cc1n(c2=O)Cc2cc3c(CN(C)C)c(OC(=O)N4CCC(N(C)C(=O)CO[C@H]5CC[C@H]6[C@@H]7CC[C@H]8CC(=O)CC[C@]8(C)[C@H]7CC[C@]56C)CC4)ccc3nc2-1 . > 1000 nM

In the following, a different compound is considered.
Give the measured IC50 of CC[C@@]1(O)C(=O)OCc2c1cc1n(c2=O)Cc2cc3c(CN(C)C)c(OC(=O)N4CCN(CCCCCCN(C)c5ccc([C@H]6C[C@@]7(C)[C@@H](CC[C@]7(OC(C)=O)C(C)=O)[C@@H]7CCC8=CC(=O)CCC8=C76)cc5)CC4)ccc3nc2-1 . > 1000 nM
